# MEASURED_TARGET: human DP1 receptor (Homo sapiens)
# Construct: tissue Biological Specialty Corporation; host or cells: human platelets, membranes
# Sequence (Q13258 1-359): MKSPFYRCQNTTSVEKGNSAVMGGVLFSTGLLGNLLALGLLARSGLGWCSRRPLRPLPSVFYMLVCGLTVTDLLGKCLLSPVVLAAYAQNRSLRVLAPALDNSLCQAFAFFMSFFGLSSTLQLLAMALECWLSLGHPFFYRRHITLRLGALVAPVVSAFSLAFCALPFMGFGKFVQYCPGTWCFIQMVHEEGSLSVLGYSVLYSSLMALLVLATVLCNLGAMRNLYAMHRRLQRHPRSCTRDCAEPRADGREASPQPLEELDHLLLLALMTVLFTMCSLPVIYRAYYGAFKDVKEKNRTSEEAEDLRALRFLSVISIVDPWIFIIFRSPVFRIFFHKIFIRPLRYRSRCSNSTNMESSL
# EXPERIMENT: DP1 radioligand binding assay using [3H]BWA868C
# CONDITION: hDP1 binding
MEASURED_ATTRIBUTE: IC50

C[C@@H]1[C@H](c2ccccc2)OC(=O)N1Cc1cc(C(F)(F)F)ccc1Oc1cc(CC(=O)O)ccc1-c1cnn(C)c1 [Compound 1-79] : > 1000 nM
C[C@@H]1[C@H](c2ccccc2)OC(=O)N1Cc1cc(Br)ccc1Oc1cccc(CC(=O)O)c1 [Compound 1-49] : < 300 nM
C[C@H]1[C@@H](c2ccccc2)OC(=O)N1Cc1cc(Br)ccc1Oc1cc(CC(=O)O)cc(C(F)(F)F)c1 [Compound 1-28] : > 1000 nM
C[C@H]1[C@@H](c2ccccc2)OC(=O)N1Cc1cc(Br)ccc1Oc1cc(CC(=O)O)ccc1Cl [Compound 1-29] : > 1000 nM
C[C@@H]1[C@H](c2ccccc2)OC(=O)N1Cc1cc(C(F)(F)F)ccc1Oc1cc(CC(=O)O)ccc1-c1ccccc1 [Compound 1-80] : > 1000 nM
COc1ccc(CC(=O)O)cc1Oc1ccc(-c2ccc(F)cc2)cc1CN1C(=O)O[C@H](c2ccccc2)[C@@H]1C [Compound 1-36] : > 1000 nM
COc1ccc(CC(=O)O)cc1Oc1ccc(-c2cnn(C)c2)cc1CN1CCOC1=O [Compound 1-96] : > 1000 nM
O=C(O)Cc1cccc(Oc2ccc(F)cc2CN2CCOC2=O)c1 [Compound 1-2] : > 1000 nM
C[C@H]1[C@@H](c2ccccc2)OC(=O)N1Cc1cc(-c2ccc(C(N)=O)cn2)ccc1Oc1cccc(CC(=O)O)c1 [Compound 1-68] : < 300 nM
COc1ccc(CC(=O)O)cc1Oc1ccc(Cl)cc1CN1C(=O)O[C@@H](c2ccccc2)[C@H]1C [Compound 1-59] : > 1000 nM
O=C(O)Cc1cccc(Oc2ccc(Br)cc2CN2C[C@H](c3ccccc3)OC2=O)c1 [Compound 1-48] : 300 to 1000 nM
COc1ccc(CC(=O)O)cc1Oc1ccc(Br)cc1CN1CCOC1=O [Compound 1-14] : > 1000 nM
C[C@@H]1[C@H](c2ccccc2)OC(=O)N1Cc1cc(Br)ccc1Oc1cc(CC(=O)O)ccc1Cl [Compound 1-58] : > 1000 nM
C[C@H]1[C@@H](c2ccccc2)OC(=O)N1Cc1cc(-c2cnc(N)cn2)ccc1Oc1cccc(CC(=O)O)c1 [Compound 1-20] : < 300 nM
CC(C(=O)O)c1cccc(Oc2ccc(C(F)(F)F)cc2CN2CCOC2=O)c1 (stereo not shown) [Compound 1-10] : > 1000 nM
CCNC(=O)c1ccc(Oc2cccc(CC(=O)O)c2)c(CN2CCOC2=O)c1 [Compound 1-6] : > 1000 nM
COc1ccc(CC(=O)O)cc1Oc1ccc(-c2cnn(C)c2)cc1CN1C(=O)O[C@@H](c2ccccc2)[C@H]1C [Compound 1-66] : > 1000 nM
C[C@H]1[C@@H](c2ccccc2)OC(=O)N1Cc1cc(Br)ccc1Oc1cccc(CC(=O)O)c1 [Compound 1-15] : < 300 nM
COc1ccc(C(C)C(=O)O)cc1Oc1ccc(C(F)(F)F)cc1CN1C(=O)O[C@H](c2ccccc2)[C@@H]1C (stereo partly shown) [Compound 1-44] : > 1000 nM

----------
# MEASURED_TARGET: human DP2 receptor (Homo sapiens)
# Sequence (Q9Y5Y4 1-395): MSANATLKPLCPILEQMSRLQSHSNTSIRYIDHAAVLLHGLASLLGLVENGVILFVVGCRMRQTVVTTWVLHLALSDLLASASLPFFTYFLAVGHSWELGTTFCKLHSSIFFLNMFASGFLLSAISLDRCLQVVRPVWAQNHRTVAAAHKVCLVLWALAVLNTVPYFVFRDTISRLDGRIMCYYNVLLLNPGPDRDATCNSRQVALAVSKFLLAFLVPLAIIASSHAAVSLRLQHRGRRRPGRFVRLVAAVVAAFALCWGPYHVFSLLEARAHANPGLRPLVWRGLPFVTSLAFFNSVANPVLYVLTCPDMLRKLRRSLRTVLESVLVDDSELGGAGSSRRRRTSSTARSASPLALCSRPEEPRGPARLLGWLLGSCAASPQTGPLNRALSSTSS
MEASURED_ATTRIBUTE: IC50

O=C(O)Cc1cccc(Oc2ccc(Br)cc2CN2C(=O)O[C@@H]3Cc4ccccc4[C@@H]32)c1 : < 300 nM
Cn1cc(-c2ccc(Oc3cccc(CC(=O)O)c3)c(CN3CCOC3=O)c2)cn1 : 300 to 1000 nM
C[C@H]1[C@@H](c2cc(C(F)(F)F)cc(C(F)(F)F)c2)OC(=O)N1Cc1cc(Br)ccc1Oc1cccc(CC(=O)O)c1 : < 300 nM

----------
# MEASURED_TARGET: recombinant human CRTH2 receptor (Homo sapiens)
# Construct: expressed in transfected cells
# EXPERIMENT: GTPγS binding assay
# Assay type: biochemical
# CONDITION: +HSA; read-out: hDP2 GTPγS μM (+HSA)
// reported IC50 per item
MEASURED_ATTRIBUTE: IC50

C[C@@H]1[C@H](c2ccccc2)OC(=O)N1Cc1cc(Br)ccc1Oc1cc(F)cc(CC(=O)O)c1 : < 0.3 µM
C[C@@H]1[C@H](c2cc(C(F)(F)F)cc(C(F)(F)F)c2)OC(=O)N1Cc1cc(Br)ccc1Oc1cccc(CC(=O)O)c1 : > 1 µM
C[C@H]1[C@@H](c2ccccc2)OC(=O)N1Cc1cc(Br)ccc1Oc1cc(CC(=O)O)ccc1Cl : > 1 µM
O=C(O)Cc1cccc(Oc2ccc(Br)cc2CN2C(=O)O[C@H]3Cc4ccccc4[C@H]32)c1 : < 0.3 µM
COc1ccc(CC(=O)O)cc1Oc1ccc(-c2ccc(F)cc2)cc1CN1C(=O)O[C@H](c2ccccc2)[C@@H]1C : > 1 µM
C[C@H]1[C@@H](c2ccccc2)OC(=O)N1Cc1cc(Br)ccc1Oc1cc(F)cc(CC(=O)O)c1 : < 0.3 µM
O=C(O)Cc1cccc(Oc2ccc(Br)cc2CN2C(=O)OC[C@@H]2Cc2ccccc2)c1 : < 0.3 µM
COc1ccc(CC(=O)O)cc1Oc1ccc(Br)cc1CN1C(=O)O[C@@H](c2cc(C(F)(F)F)cc(C(F)(F)F)c2)[C@H]1C : > 1 µM
CCNC(=O)c1ccc(Oc2cccc(CC(=O)O)c2)c(CN2CCOC2=O)c1 : 0.3 to 1 µM
O=C(O)Cc1cccc(Oc2ccc(-c3ccccc3)cc2CN2CCOC2=O)c1 : 0.3 to 1 µM
COc1ccc(CC(=O)O)cc1Oc1ccc(-c2cn[nH]c2)cc1CN1C(=O)O[C@H](c2ccccc2)[C@@H]1C : < 0.3 µM
C[C@@H]1[C@H](c2cc(F)cc(F)c2)OC(=O)N1Cc1cc(Br)ccc1Oc1cccc(CC(=O)O)c1 : < 0.3 µM
C[C@H]1[C@@H](c2cc(C(F)(F)F)cc(C(F)(F)F)c2)OC(=O)N1Cc1cc(Br)ccc1Oc1cccc(CC(=O)O)c1 : < 0.3 µM
COc1ccc(CC(=O)O)cc1Oc1ccc(Br)cc1CN1C(=O)O[C@@H](c2ccc(Cl)cc2)[C@H]1C : 0.3 to 1 µM
COc1ccc(CC(=O)O)cc1Oc1ccc(Br)cc1CN1C(=O)O[C@H](c2ccccc2)[C@@H]1C : 0.3 to 1 µM
C[C@H]1[C@@H](c2ccccc2)OC(=O)N1Cc1cc(Br)ccc1Oc1cccc(CC(=O)O)c1 : 0.3 to 1 µM
CS(=O)(=O)c1ccc(-c2ccc(Oc3cccc(CC(=O)O)c3)c(CN3CCOC3=O)c2)cc1 : 0.3 to 1 µM
